- tested_on: T1, similar peptide SP-05-0001, source protein not stated peptide on HLA-A*02:01 (human)
- T1 peptide: HIMEHLEGV
- measurement_description: killing

binder	binding result
TCR-1 (TCR, V domains shown) Valpha: QTVTQSQPEMSVQEAETVTLSCTYDTSENNYYLFWYKQPPSRQMILVIRQEAYKQQNATENRFSVNFQKAAKSFSLKISDSQLGDTAMYFCAPLGLVAGSARQLTFGSGTQLTVLP Vbeta: GVSQDPRHKITKRGQNVTFRCDPISEHNRLYWYRQTLGQGPEFLTYFQNEAQLEKSRLLSDRFSAERPKGSFSTLEIQRTEQGDSAMYLCASSTDITSYEQYFGPGTRLTVT	no recognition
TCR-6 (TCR, V domains shown) Valpha: QKEVEQDPGPLSVPEGAIVSLNCTYSNSAFQYFMWYRQYSRKGPELLMYTYSSGNKEDGRFTAQVDKSSKYISLFIRDSQPSDSATYLCAMSGNSGARDYGNNRLAFGKGNQVVVIP Vbeta: EVTQTPKHLVMGMTNKKSLKCEQHMGHRAMYWYKQKAKKPPELMFVYSYEKLSINESVPSRFSPECPNSSLLNLHLHALQPEDSALYLCASATWEEAGPYNEQFFGPGTRLTVL	no recognition
TCR-13 (TCR, V domains shown) Valpha: QKITQTQPGMFVQEKEAVTLDCTYDTSDQSYGLFWYKQPSSGEMIFLIYQGSYDEQNATEGRYSLNFQKARKSANLVISASQLGDSAMYFCAMSDPIMDTGRRALTFGSGTRLQVQP Vbeta: GITQSPKYLFRKEGQNVTLSCEQNLNHDAMYWYRQDPGQGLRLIYYSQIVNDFQKGDIAEGYSVSREKKESFPLTVTSAQKNPTAFYLCASKSRGPNLADTQYFGPGTRLTVL	no recognition

Values compiled from patent US20230057987A1.
